ASSAYED SYSTEM: T1, recombinant cynomolgous IL-23 (cynomolgous)
T1 chain 1: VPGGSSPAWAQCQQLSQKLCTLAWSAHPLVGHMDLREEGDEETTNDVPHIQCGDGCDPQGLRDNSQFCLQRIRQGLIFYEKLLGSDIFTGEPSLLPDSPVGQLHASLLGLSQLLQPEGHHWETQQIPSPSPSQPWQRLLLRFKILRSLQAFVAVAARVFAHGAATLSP
T1 chain 2: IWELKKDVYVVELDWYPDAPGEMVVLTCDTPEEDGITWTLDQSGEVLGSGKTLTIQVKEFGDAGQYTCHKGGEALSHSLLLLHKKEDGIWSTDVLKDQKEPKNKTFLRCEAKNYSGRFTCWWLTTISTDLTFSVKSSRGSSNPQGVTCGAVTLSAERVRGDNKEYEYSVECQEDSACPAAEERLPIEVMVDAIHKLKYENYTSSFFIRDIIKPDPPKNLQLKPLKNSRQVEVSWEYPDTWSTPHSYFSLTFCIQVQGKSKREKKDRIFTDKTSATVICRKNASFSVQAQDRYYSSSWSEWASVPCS
PROTOCOL TEXT: cell-based or functional assay
Decision: IC50 (pM), STAT-luciferase assay beneath 400 pM gives MET; IC50 (pM), STAT-luciferase assay meeting or exceeding 400 pM gives NOT MET.

Query :: Just wondering, is IC50 (pM), STAT-luciferase assay of Antibody H (antibody, V domains shown) VH: QVQLQESGPGLVKPSQTLSLTCTVSGGSISSGGYYWTWIRQHPGKGLEWIGYIYYSGNTYYNPSLKSRITISVDTSKNQFSLSLSSVTAADTAVYYCARNRGYYYGMDVWGQGTTVTVSS VL: DIQMTQSPSSVSASVGDRVTITCRASQGFSGWLAWYQQKPGKAPKLLIYAASSLQSGVPSRFSGSGSGTDFTLTISSLQPEDFATYYCQQANSFPFTFGPGTKVDIK below 400 pM?
Result :: NOT MET

Query :: Just wondering, is IC50 (pM), STAT-luciferase assay of Antibody I (antibody, V domains shown) VH: QVQLQESGPGLVKPSETLSLTCTVSGGSISTYYWSWIRQPAGKGLEWIGLIYTSGSTNYNPSLKSRVTMSLDTSKNQFSLRLTSVTAADTAVYYCARDRGYYYGVDVWGQGTTVTVSS VL: DIQLTPSPSSVSASVGDRVTITCRASQGIAGWLAWYQQKPGKAPKLLIYAASSLQSGVPSRFSGSGSGTDFTLTISSLQPEDFATYYCQQADSFPPTFGGGTKVEIK below 400 pM?
Result :: NOT MET

Query :: Just wondering, is IC50 (pM), STAT-luciferase assay of Antibody G (antibody, V domains shown, also called VH12/VL12) VH: QVQLQESGPRLVKPSETLSLTCTVSGDSISSYFWSWIRQPPGKGLEWLGYIYYSGSTNYNPSLKSRVTISIDTSKNQFSLKLSSVTAADTAVYYCTRDRGSYYGSDYWGQGTLVTVSS VL: DIQMTQSPSSVSASVGDRVTITCRAGQVISSWLAWYQQKPGKAPKLLIYAASSLQSGVPSRFSGSGSGTDFTLTISSLQPDDFATYYCQQATSFPLTFGGGTKVEIK below 400 pM?
Result :: NOT MET

Query :: Just wondering, is IC50 (pM), STAT-luciferase assay of Antibody L (antibody, V domains shown, also called VH4/VL4) VH: QVQLVESGGGVVQPGRSLRLSCAASGFTFSSYAMHWVRQAPGKGLEWLSVISHDGSIKYYADSVKGRFTISRDNSKNTLYLQMNSLRAEDTAVYYCARERTTLSGSYFDYWGQGTLVTVSS VL: QAVLTQPSSLSASPGASASLTCTLRSGINVGTYRIYWYQQKPGSPPQYLLRYKSDSDKQQGSGVPSRFSGSKDASANAGILLISGLQSEDEADYYCMIWHSSASVFGGGTKLTVL below 400 pM?
Result :: MET

Query :: Just wondering, is IC50 (pM), STAT-luciferase assay of Antibody C (antibody, V domains shown, also called VH10/VL10) VH: QVQLQESGPGLVKPSQTLSLTCTVSGGSINSGGYYWSWIRQHPGKGLEWIGYIYYSGSSYYNPSLKSRVTISVDTSQNQFSLKLSSVTAADTAVYYCARDRGHYYGMDVWGQGTTVTVSS VL: DIQMTQSPSSVSASVGDRVTITCRASQGSSSWFAWYQQKPGKAPKLLIYAASSLQSGVPSRFSGSGSGTDFTLTISSLQPEDFATYYCQQANSFPFTFGPGTKVDIK below 400 pM?
Result :: MET
